# experimental system: Msn1 (UniProt P22148)
# Sequence: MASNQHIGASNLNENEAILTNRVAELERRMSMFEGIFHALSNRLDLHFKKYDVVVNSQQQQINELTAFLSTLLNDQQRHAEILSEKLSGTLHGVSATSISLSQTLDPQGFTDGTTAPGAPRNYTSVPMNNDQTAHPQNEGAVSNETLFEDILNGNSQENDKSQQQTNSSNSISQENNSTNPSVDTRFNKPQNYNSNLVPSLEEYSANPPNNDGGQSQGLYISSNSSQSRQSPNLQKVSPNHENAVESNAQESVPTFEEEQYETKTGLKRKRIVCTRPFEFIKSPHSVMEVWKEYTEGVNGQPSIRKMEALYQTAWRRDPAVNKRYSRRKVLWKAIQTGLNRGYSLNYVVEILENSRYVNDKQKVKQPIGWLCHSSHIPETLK
# assay remarks: PBM E-score (8-mer binding enrichment) (E-score (-0.5 to 0.5)); higher = stronger / more preferred TF binding
# test settings: protein concentration: 200 nM; construct: GST-full length
Whole data set: some 33,000 sequences, median “E-score (-0.5 to 0.5)” near -0.013, cut for the highest 2% near 0.3. Only a selection was taken, and the highest values are over-represented in it overall.
Each entry below lists one item and its recorded PBM E-score value.
Format: numeric value only, no unit, no commentary.

Below, each entry is followed by its recorded PBM E-score result.
{"columns": ["primary sequence", "PBM E-score"],
 "data": [
  ["GATTGCTA", -0.0824],
  ["CAAGCGCA", 0.185],
  ["ATCTGTCC", 0.387],
  ["TAAGCTCA", -0.0986],
  ["GTACAAAA", 0.416]
]}

Problem: Would you mind telling me what PBM E-score value was observed for GGAAGAAC ?
Result: -0.012

Problem: Then this sequence: AAACTGCT
Result: -0.222

Problem: Then this sequence: GCAGGACA
Result: 0.47

Problem: Then this sequence: CCTGTCTA
Result: 0.143

Problem: Then this sequence: TTACAAAA
Result: 0.12

Problem: Then this sequence: ATAATGTC
Result: 0.427
